# inhibition of growth at 10 µM values compiled below
System: OVCAR-4
PROCEDURE_DETAILS: Cytotoxicity against human OVCAR4 cells assessed as growth inhibition at 10 uM after 48 hrs by coulter counter analysis
Type: functional
CONDITION_SUMMARY: OVCAR-4, 48 h, read-out: GI
ENDPOINT: inhibition of growth at 10 µM (%)

smiles_code=COc1cc(NC(=O)CSc2nc3ccccc3c(=O)n2CCc2ccccc2)cc(OC)c1OC test_value=47
smiles_code=O=C(CSc1nc2ccccc2c(=O)n1CCc1ccccc1)Nc1ccccc1C(=O)O test_value=23
smiles_code=O=C(CSc1nc2ccccc2c(=O)n1CCc1ccccc1)Nc1ccc(Cl)cc1 test_value=14
smiles_code=O=C(CSc1nc2ccccc2c(=O)n1CCc1ccccc1)NCc1ccccc1 test_value=13
smiles_code=CCOC(=O)c1ccc(NC(=O)CSc2nc3ccccc3c(=O)n2CCc2ccccc2)cc1 test_value=10
